Each recorded value in this set is attributed to patent US8071587B2.

Measured melting point values are reported for all entries that follow.

MOLECULE	melting point
COc1cc2c(cc1NC(=O)c1csnn1)-c1c(-c3cccs3)nc(C(=O)N(C)C(C)(C)C)n1CC2 [Example 12]	210 to 212 °C
COc1cc2c(cc1CC(C)C)-c1c(-c3ncco3)nc(C(=O)N(C)C(C)(C)C)n1CC2 [Example 37f]	147 to 148 °C
COc1cccc(Oc2cc3c(cc2OC)CCn2c(C(=O)N(C)C(C)(C)C)nc(-c4cccs4)c2-3)c1 [Example 43b]	123 to 124 °C
COc1cc2c(cc1CC(C)C)-c1c(-c3cncs3)nc(C(=O)N(C)C(C)(C)C)n1CC2 [Example 38]	144 to 145 °C
COc1cc2c(cc1-c1cccc(F)n1)-c1c(-c3cccs3)nc(C(=O)N(C)C(C)(C)C)n1CC2 [Example 2c]	161 to 162 °C
COc1cc2c(cc1-c1cccc(C(=O)N(C)C)c1)-c1c(-c3cccs3)nc(C(=O)N(C)C(C)(C)C)n1CC2 [Example 2n]	151 °C
COc1cc2c(cc1CCC(C)(C)O)-c1c(-c3cccs3)nc(C(=O)N(C)C(C)(C)C)n1CC2 [Example 41c]	140 to 143 °C

###

MOLECULE	melting point
COc1cc2c(cc1-c1cccc(N)c1)-c1c(-c3cccs3)nc(C(=O)N(C)C(C)(C)C)n1CC2 [Example 2k]	213 °C
COc1cc2c(cc1C=C(F)F)-c1c(-c3cccs3)nc(C(=O)N(C)C(C)(C)C)n1CC2 [Example 39]	154 to 155 °C
COc1cc2c(c(F)c1CC(C)C)-c1c(-c3cccs3)nc(C(=O)N(C)C(C)(C)C)n1CC2 [Example 48j]	141 to 142 °C
COc1cc2ccn3c(C(=O)N(C)C(C)(C)C)nc(-c4cccs4)c3c2cc1OC(C)C [Example 15j]	163 to 164 °C

###

Friendly reminder: melting point below 200 °C is 1, at or above is -1.

MOLECULE	CLASS_LABEL
COc1cc2c(cc1-c1cccc(N(C)C)c1)-c1c(-c3cccs3)nc(C(=O)N(C)C(C)(C)C)n1CC2	1
COc1cc2c(cc1-c1cccc(S(C)(=O)=O)c1)-c1c(-c3cccs3)nc(C(=O)N(C)C(C)(C)C)n1CC2	-1
COc1cc2c(cc1-c1cccc(-n3cccn3)c1)-c1c(-c3cccs3)nc(C(=O)N(C)C(C)(C)C)n1CC2	1
CC(C)Cc1ccc2c(c1)-c1c(-c3cccs3)nc(C(=O)N(C)C(C)(C)C)n1CC2 [Example 20b]	1
COc1cc2c(cc1-c1ccc3c(c1)OCO3)-c1c(-c3cccs3)nc(C(=O)N(C)C(C)(C)C)n1CC2	1
COc1cc2c(cc1-c1cccc(NC(C)=O)c1)-c1c(-c3cccs3)nc(C(=O)N(C)C(C)(C)C)n1CC2	1

###

# maps each entry to its melting point
MEASUREMENT_NAME: melting point

COMPOUND	MEASUREMENT_NAME	VALUE_OBSERVED
COc1cc2c(cc1NC(=O)c1cccnc1)-c1c(-c3cccs3)nc(C(=O)N(C)C(C)(C)C)n1CC2	melting point	159 to 161 °C
COc1cc2c(cc1-c1ccccn1)-c1c(-c3cccs3)nc(C(=O)N(C)C(C)(C)C)n1CC2	melting point	176 to 177 °C
COc1cc2c(cc1CC(C)C)-c1c(-c3cccs3)nc(C(=O)N(C)C(C)(C)C)n1CC2 [Example 18k]	melting point	124 °C
COc1cc2c(cc1-c1c(C)noc1C)-c1c(-c3cccs3)nc(C(=O)N(C)C(C)(C)C)n1CC2	melting point	183 to 184 °C
COc1cc2c(cc1NC(=O)c1cscn1)-c1c(-c3cccs3)nc(C(=O)N(C)C(C)(C)C)n1CC2	melting point	240 to 242 °C
COc1cc2c(cc1-c1cccc(F)c1)-c1c(-c3cccs3)nc(C(=O)N(C)C(C)(C)C)n1CC2	melting point	165 °C
CCN(C(=O)c1nc(-c2cccs2)c2n1CCc1cc(OC)c(OCCO)cc1-2)C(C)(C)C [Example 34b]	melting point	178 to 186 °C
